- Test system: MDA-MB-468
- experimentSummary: Antiproliferative activity against human MDA-MB-468 cells measured after 6 days by MTT assay
- Format: functional
- runParameters: MDA-MB-468, 144 h, time 6 day
assayReadout: GI50 (nM)
Response body: numeric value in nM, unit text excluded.

Reported GI50, molecule [2H]c1nc([2H])n(C2CCC(C)(C)C(/C=C/C(C)=C/C=C/C(C)=C/C(=O)Nc3c([2H])c([2H])c(F)c([2H])c3[2H])=C2C)c1[2H] (racemic) : ____
250

Reported GI50, molecule [2H]c1nc([2H])n(C2([2H])CCC(C)(C)C(/C=C/C(C)=C/C=C/C(C)=C/C(=O)Nc3ccc(F)cc3)=C2C)c1[2H] (racemic) : ____
270

Reported GI50, molecule CC1=C(/C=C/C(C)=C/C=C/C(C)=C/C(=O)Nc2ccc(F)cc2)C(C)(C)CCC1n1ccnc1 (racemic; form 1) : ____
400

Reported GI50, molecule `CC(=O)O[C@H]1C(=O)[C@@]2(C)[C@H]([C@H](OC(=O)c3ccccc3)[C@]3(O)C[C@H](OC(=O)[C@H](O)[C@@H](NC(=O)c4ccccc4)c4ccccc4)C(C)=C1C3(C)C)[C@]1(OC(C)=O)CO[C@@H]1C[C@@H]2O` : ____
100

Reported GI50, molecule [2H]c1c([2H])c(NC(=O)/C=C(C)/C=C/C=C(C)/C=C/C2=C(C)C([2H])(n3ccnc3)CCC2(C)C)c([2H])c([2H])c1F (racemic) : ____
270

Reported GI50, molecule [2H]c1nc([2H])n(C2CCC(C)(C)C(/C=C/C(C)=C/C=C/C(C)=C/C(=O)Nc3ccc(F)cc3)=C2C)c1[2H] (racemic) : ____
280

Reported GI50, molecule [2H]C1(n2ccnc2)CCC(C)(C)C(/C=C/C(C)=C/C=C/C(C)=C/C(=O)Nc2ccc(F)cc2)=C1C (racemic) : ____
190

Reported GI50, molecule [2H]c1nc([2H])n(C2([2H])CCC(C)(C)C(/C=C/C(C)=C/C=C/C(C)=C/C(=O)Nc3c([2H])c([2H])c(F)c([2H])c3[2H])=C2C)c1[2H] (racemic) : ____
290

Reported GI50, molecule [2H]c1c([2H])c(NC(=O)/C=C(C)/C=C/C=C(C)/C=C/C2=C(C)C(n3ccnc3)CCC2(C)C)c([2H])c([2H])c1F (racemic) : ____
270

---

Please go through the items and note down their Tmax.
- experimentSummary: Tmax in po dosed CD-1 mouse by LC/MS/MS analysis
- Format: ADME, organism-based
- runParameters: in vivo
Response body: numeric value in min, unit text excluded.

Reported Tmax, compound CC1=C(/C=C/C(C)=C/C=C/C(C)=C/C(=O)Nc2ccc(F)cc2)C(C)(C)CCC1n1ccnc1 (racemic; form 1) : ____
49.8

Reported Tmax, compound [2H]c1nc([2H])n(C2([2H])CCC(C)(C)C(/C=C/C(C)=C/C=C/C(C)=C/C(=O)Nc3c([2H])c([2H])c(F)c([2H])c3[2H])=C2C)c1[2H] (racemic) : ____
160

Reported Tmax, compound [2H]c1nc([2H])n(C2([2H])CCC(C)(C)C(/C=C/C(C)=C/C=C/C(C)=C/C(=O)Nc3ccc(F)cc3)=C2C)c1[2H] (racemic) : ____
40.2

Reported Tmax, compound [2H]C1(n2ccnc2)CCC(C)(C)C(/C=C/C(C)=C/C=C/C(C)=C/C(=O)Nc2ccc(F)cc2)=C1C (racemic) : ____
150

Reported Tmax, compound [2H]c1c([2H])c(NC(=O)/C=C(C)/C=C/C=C(C)/C=C/C2=C(C)C([2H])(n3ccnc3)CCC2(C)C)c([2H])c([2H])c1F (racemic) : ____
45

Reported Tmax, compound [2H]c1c([2H])c(NC(=O)/C=C(C)/C=C/C=C(C)/C=C/C2=C(C)C(n3ccnc3)CCC2(C)C)c([2H])c([2H])c1F (racemic) : ____
49.8

Reported Tmax, compound [2H]c1nc([2H])n(C2CCC(C)(C)C(/C=C/C(C)=C/C=C/C(C)=C/C(=O)Nc3ccc(F)cc3)=C2C)c1[2H] (racemic) : ____
79.8

Reported Tmax, compound [2H]c1nc([2H])n(C2CCC(C)(C)C(/C=C/C(C)=C/C=C/C(C)=C/C(=O)Nc3c([2H])c([2H])c(F)c([2H])c3[2H])=C2C)c1[2H] (racemic) : ____
49.8
